target: b-Raf (V600E) (Homo sapiens (Human), UniProt P15056, V600E); conditions: read-out: b-Raf IC-50; AlphaScreen, 60 min pre-incubation, reaction 3 hours at room temperature
Sequence (P15056 whole entry V600E): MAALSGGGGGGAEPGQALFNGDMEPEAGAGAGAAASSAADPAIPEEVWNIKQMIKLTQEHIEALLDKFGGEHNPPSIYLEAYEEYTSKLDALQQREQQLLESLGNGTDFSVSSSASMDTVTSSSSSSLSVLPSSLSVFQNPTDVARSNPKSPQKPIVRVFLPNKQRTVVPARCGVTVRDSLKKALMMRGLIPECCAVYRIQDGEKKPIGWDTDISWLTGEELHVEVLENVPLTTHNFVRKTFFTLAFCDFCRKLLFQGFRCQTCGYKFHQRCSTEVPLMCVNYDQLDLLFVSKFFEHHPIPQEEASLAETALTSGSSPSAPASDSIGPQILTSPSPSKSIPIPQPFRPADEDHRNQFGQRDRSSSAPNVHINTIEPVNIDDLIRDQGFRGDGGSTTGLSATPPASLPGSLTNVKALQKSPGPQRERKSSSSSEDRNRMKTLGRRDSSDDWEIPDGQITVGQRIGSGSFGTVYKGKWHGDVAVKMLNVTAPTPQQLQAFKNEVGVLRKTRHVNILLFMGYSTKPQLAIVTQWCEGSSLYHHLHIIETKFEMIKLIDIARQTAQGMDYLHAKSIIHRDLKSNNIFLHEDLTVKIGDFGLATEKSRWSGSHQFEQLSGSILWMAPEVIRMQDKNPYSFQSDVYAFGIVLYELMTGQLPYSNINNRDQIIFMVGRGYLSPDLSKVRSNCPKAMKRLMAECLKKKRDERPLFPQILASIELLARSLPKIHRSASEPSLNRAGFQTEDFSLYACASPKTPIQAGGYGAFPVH
pIC50: −log10 of the molar value.
test readout: pIC50

(P) Cc1ccc(NC(=O)c2ccnc(C(C)(C)C#N)c2)cc1-c1nc(N2CCOCC2)c2[nH]ccc2n1
(Q) Cc1ccc(NC(=O)c2cccc(C(F)F)c2)cc1-c1nc2c(c(N3CCOCC3)n1)S(=O)(=O)CC2
// max by pIC50 over [ P , Q ] Write down the label attached to your selection.
Q

(I) Cc1ccc(NC(=O)c2ccnc(C(C)(F)F)c2)cc1-c1cc(N2CCOCC2)nc(N2CC(O)C2)c1
(II) CCn1cc(C(=O)Nc2cnc(C)c(-c3cc(N4CCOCC4)nc(N4CC(O)C4)c3)c2)cc(C(F)(F)F)c1=O
Quick check, higher pIC50 between I and II ? Give the label under which the chosen entry appears.
I
(I: 9.17, II: 7.68)
